As shown below, each of these compounds has a reported melting point value.

Solved cases below.
COc1ccc(-c2ccn(-c3ccc4c(cnn4CCN4CCCC4)c3)c(=O)c2)c(C)c1.Cl = 205 to 215 °C
Cl.O=c1cc(-c2ccc(C(F)(F)F)cc2)ccn1-c1ccc2c(cnn2C[C@@H]2CCCN2)c1 = 241 to 245 °C
COc1cc(Cl)ccc1-c1ccn(-c2ccc3c(cnn3CCN3CCCC3)c2)c(=O)c1.Cl = 248 to 256 °C
COc1ccc(-c2ccn(-c3ccc4c(cnn4CCN4CCCC4)c3)c(=O)c2)c(F)c1.Cl = 230 to 240 °C

Okay, next one:
Endpoint output: melting point of CCOc1ccc(-c2ccn(-c3ccc4c(cnn4CCN4CCCC4)c3)c(=O)c2)cc1.Cl . Value? 255 to 265 °C
